# experimentDescription: plasmodial surface anion channel blockers, osmotic lysis – cell-based, P. falciparum Indochina, OD700, 1 h, primary screen (AID 1154)
# conditionLabel: P. falciparum Indochina infected RBC osmotic lysis, called active from +8 up or from −8 down
Calls of active or inactive are those of the source.
Your response should consist of one outcome taken from active, inactive

{"compound": "CCCCCN1CC=CC23O[C@@H]4/C=C\\CCC(C)OC(=O)C4[C@H]2C(=O)N(C(CO)C(C)C)[C@@H]3C1=O (stereo partly specified)", "assignedCategory": "inactive"}
{"compound": "COc1ccc([C@H]2OC[C@@H]3C[C@H](Cc4ccccc4)C(=O)N32)cc1", "assignedCategory": "inactive"}
{"compound": "C=CCNC(=O)[C@@H]1[C@H]2C(=O)O[C@H](c3ccccc3)[C@H](c3ccccc3)N2[C@H](c2ccc(OCCO)cc2)[C@@]12C(=O)N(C(=O)OCCOC)c1ccc(C#Cc3ccc(OC)cc3)cc12", "assignedCategory": "inactive"}
{"compound": "C=CC[C@H](OC(=O)Nc1ccc(SC)cc1)c1ccc(O)c2ccccc12", "assignedCategory": "active"}
{"compound": "COC(=O)C1(CC(C)C)C=C2C(=C(c3ccccc3)C(=O)C2C)CN1 (stereo unspecified)", "assignedCategory": "inactive"}

Prompt: What did this assay record as the result for COc1ccccc1CN1C(=O)c2ccccc2[C@](Cc2ccccc2I)(C(=O)O)[C@@H]1c1ccc(CO)cc1 ?
Completion: inactive

Prompt: What did this assay record as the result for C=C[C@H](C)[C@H](OC(=O)Nc1ccc(SC)cc1)c1ccc(OCCO)cc1 ?
Completion: active

Prompt: What did this assay record as the result for Cc1ccc(S[C@]2(C(=O)NC(C)C)CC(=O)N(Cc3cc(C(F)(F)F)cc(C(F)(F)F)c3)[C@@H]2c2ccc(CO)cc2)cc1 ?
Completion: inactive
